tested on: Escherichia coli ATCC 25922; type: cell-based; conditions: ATCC 25922, 18 h
Where a SMILES comes first, the peptide text is derived from it. The star is where a group is joined. Palmitoyl = CCCCCCCCCCCCCCCC(=O)*; Myristoyl = CCCCCCCCCCCCCC(=O)*; Lauroyl = CCCCCCCCCCCC(=O)*

{"molecule": "CCCCCCCCCCCCCCCC(=O)N[C@@H](CCCCN)C(=O)N[C@@H](CCCCN)C(=O)N[C@@H](CCCCN)C(N)=O [Lipopeptide 7, C16-KKK-NH2]", "MIC E. coli": "32 µg/mL"}
{"molecule": "CCCCCCCCCCCCCC(=O)N[C@@H](CCCCN)C(=O)N[C@@H](CCCNC(=N)N)C(N)=O [Lipopeptide 4, C14-KR-NH2] (Myristoyl-Lys-Arg-NH2)", "MIC E. coli": "32 µg/mL"}
{"molecule": "CCCCCCCCCCCC(=O)N[C@@H](CCCCN)C(=O)N[C@@H](CCCNC(=N)N)C(N)=O [Lipopeptide 2, C12-KR-NH2] (Lauroyl-Lys-Arg-NH2)", "MIC E. coli": "512 µg/mL"}
{"molecule": "CCCCCCCCCCCCCCCC(=O)N[C@@H](CCCCN)C(=O)N[C@@H](CCCNC(=N)N)C(N)=O [Lipopeptide 8, C16-KR-NH2] (Palmitoyl-Lys-Arg-NH2)", "MIC E. coli": "64 µg/mL"}
{"molecule": "CCCCCCCCCCCCCCCC(=O)N[C@@H](CCCCN)C(=O)NCC(=O)N[C@@H](CCCCN)C(N)=O [Lipopeptide 5, C16-KGK-NH2] (Palmitoyl-Lys-Gly-Lys-NH2)", "MIC E. coli": "16 µg/mL"}

###

Catalogue of compounds with associated MBFIC S. aureus, CL
system: Staphylococcus aureus ATCC 25923; assay: MBFIC assay (biofilm formation inhibition, resazurin); assay type: cell-based; settings: contact lenses (CL, Etafilcon A hydrogel) in 24-well plates, ca. 5 × 10^8 CFU/mL in MHB II, 37 °C, 18 h, resazurin, visual, triplicate
Where a SMILES comes first, the peptide text is derived from it. Bridges are numbered along the chain shown (N, C = ends). Roman numbers before positions name the chains, in order. The star is where a group is joined. Palmitoyl = CCCCCCCCCCCCCCCC(=O)*; Lauroyl = CCCCCCCCCCCC(=O)*

{"compound": "CCCCCCCCCCCCCCCC(=O)N[C@@H](CCCCN)C(=O)NCC(=O)N[C@@H](CCCCN)C(N)=O [Lipopeptide 5, C16-KGK-NH2] (Palmitoyl-Lys-Gly-Lys-NH2)", "MBFIC S. aureus, CL": "32/32 μg/mL"}
{"compound": "CCCCCCCCCCCC(=O)N[C@@H](CCCCN)C(=O)N[C@@H](CCCCN)C(=O)N[C@@H](CSSC[C@H](NC(=O)[C@H](CCCCN)NC(=O)[C@H](CCCCN)NC(=O)CCCCCCCCCCC)C(N)=O)C(N)=O [Lipopeptide 1, C12-KKC-NH2] (I: Lauroyl-Lys-Lys-Cys-NH2 / II: Lauroyl-Lys-Lys-Cys-NH2; disulfide I:3-II:3)", "MBFIC S. aureus, CL": "32/32 μg/mL"}
{"compound": "CCCCCCCCCCCCCCCC(=O)N[C@@H](CCCCN)C(=O)N[C@@H](CCCCN)C(=O)N[C@@H](CCCCN)C(N)=O [Lipopeptide 7, C16-KKK-NH2]", "MBFIC S. aureus, CL": "32/32 μg/mL"}
